Species: Homo sapiens
protocol description: Inhibition of human DNA topoisomerase-1B using supercoiled pHOT1 plasmid DNA as substrate assessed as inhibition of DNA relaxation at 100 uM after 30 mins by agarose gel electrophoresis
Activity calls are given as the source filed them. No cut-off for these calls is given here.
Answer with one of the outcomes given here: T (active), F (inactive)

Solved entries:
| chemical smiles | assigned class |
| --- | --- |
| CCCN1CCN(c2ccc3nc(-c4ccc5nc(-c6ccc(OCC)cc6)[nH]c5c4)[nH]c3c2)CC1 | F |
| CCCN1CCN(c2ccc3nc(-c4ccc5nc(-c6ccc(OC)c(OC)c6)[nH]c5c4)[nH]c3c2)CC1 | T |
| COc1ccc(-c2nc3ccc(-c4nc5ccc(N6CCN(c7ccncc7)CC6)cc5[nH]4)cc3[nH]2)cc1OC | F |
| COc1ccc(-c2nc3ccc(-c4nc5ccc(N6CCN(c7ncccn7)CC6)cc5[nH]4)cc3[nH]2)cc1OC | T |
| CCOc1ccc(-c2nc3ccc(-c4nc5ccc(N6CCN(CCN(C)C)CC6)cc5[nH]4)cc3[nH]2)cc1 | F |

Now consider the entry below.
Task item: Tell me the recorded outcome of this test for CCOc1ccc(-c2nc3ccc(-c4nc5ccc(N6CCN(CC)CC6)cc5[nH]4)cc3[nH]2)cc1 .
Reply: T
